- experimental-details: Water solubility of the p-toluenesulfonic acid salt at different pH
- Assay type: physicochemical
- assay-conditions: water, simulated gastric fluid; pH 1 or 4
outcome-measure: solubility

entry_smiles=CC(C)(NC(=O)C1=C(O)[C@@H]2Oc3c(O)ccc4c3[C@@]23CCN(CC2CC2)[C@H](C4)[C@]3(O)C1)c1nc(-c2ccccc2)no1 outcome_measure=solubility measurement="> 1000 µg/mL"
